Tested on: tet operator sequence
protocol details: β-galactosidase activity of a tetracycline-regulated promoter in transformed E. coli with revTetR, in the presence and absence of anhydrotetracycline (atc)
Format: cell-based, Escherichia coli
condition description: RevTetR isolate cultured in the presence of anhydrotetracycline (ATC)
Readings of β-Galactosidase Activity, Cultured With ATC for the listed molecules
property label: β-Galactosidase Activity, Cultured With ATC

molecule: TetRrevAtc4-70: revTetR(BD) D53A A61P (protein, Modified tetracycline repressor, revTetR(BD) D53A A61P) MSRLDKSKVINSALELLNEVGIEGLTTRKLAQKLGVEQPTLYWHVKNKRALLAALAVEILPRHHDYSLPAAGESWQSFLRNNAMSFRRALLRYRDGAKVHLGTRPDEKQYDTVETQLRFMTENGFSLRDGLYAISAVSHFTLGAVLEQQEHTAALTDRPAAPDENLPPLLREALQIMDSDDGEQAFLHGLESLIRGFEVQLTALLQIV
endpoint result: 11.125
//
molecule: TetRrevAtc4-5: revTetR(BD) I59F A61S H64Q A97T (protein, Modified tetracycline repressor, revTetR(BD) I59F A61S H64Q A97T) MSRLDKSKVINSALELLNEVGIEGLTTRKLAQKLGVEQPTLYWHVKNKRALLDALAVEFLSRHQDYSLPAAGESWQSFLRNNAMSFRRALLRYRDGTKVHLGTRPDEKQYDTVETQLRFMTENGFSLRDGLYAISAVSHFTLGAVLEQQEHTAALTDRPAAPDENLPPLLREALQIMDSDDGEQAFLHGLESLIRGFEVQLTALLQIV
endpoint result: 12.552
//
molecule: TetRrev6-34: revTetR(BD) R94L D95A H100 (protein, H100 change unspecified; Modified tetracycline repressor, revTetR(BD) R94L D95A H100) MSRLDKSKVINSALELLNEVGIEGLTTRKLAQKLGVEQPTLYWHVKNKRALLDALAVEILARHHDYSLPAAGESWQSFLRNNAMSFRRALLRYLAGAKVQLGTRPDEKQYDTVETQLRFMTENGFSLRDGLYAISAVSHFTLGAVLEQQEHTAALTDRPAAPDENLPPLLREALQIMDSDDGEQAFLHGLESLIRGFEVQLTALLQIV
endpoint result: 40.254
//
molecule: TetRrev4/6-15: revTetR(BD) A56S I59A L60W V99V (protein, Modified tetracycline repressor, revTetR(BD) A56S I59A L60W V99V) MSRLDKSKVINSALELLNEVGIEGLTTRKLAQKLGVEQPTLYWHVKNKRALLDALSVEAWARHHDYSLPAAGESWQSFLRNNAMSFRRALLRYRDGAKVHLGTRPDEKQYDTVETQLRFMTENGFSLRDGLYAISAVSHFTLGAVLEQQEHTAALTDRPAAPDENLPPLLREALQIMDSDDGEQAFLHGLESLIRGFEVQLTALLQIV
endpoint result: 7.647
//
molecule: TetRrev29/27: revTetR(BD) L14E V20G (protein, Modified tetracycline repressor, revTetR(BD) L14E V20G) MSRLDKSKVINSAEELLNEGGIEGLTTRKLAQKLGVEQPTLYWHVKNKRALLDALAVEILARHHDYSLPAAGESWQSFLRNNAMSFRRALLRYRDGAKVHLGTRPDEKQYDTVETQLRFMTENGFSLRDGLYAISAVSHFTLGAVLEQQEHTAALTDRPAAPDENLPPLLREALQIMDSDDGEQAFLHGLESLIRGFEVQLTALLQIV
endpoint result: 9.453
//
molecule: TetRrev29/52: revTetR(BD) L14V L17V N18K V20V G24G (protein, Modified tetracycline repressor, revTetR(BD) L14V L17V N18K V20V G24G) MSRLDKSKVINSAVELVKEVGIEGLTTRKLAQKLGVEQPTLYWHVKNKRALLDALAVEILARHHDYSLPAAGESWQSFLRNNAMSFRRALLRYRDGAKVHLGTRPDEKQYDTVETQLRFMTENGFSLRDGLYAISAVSHFTLGAVLEQQEHTAALTDRPAAPDENLPPLLREALQIMDSDDGEQAFLHGLESLIRGFEVQLTALLQIV
endpoint result: 3.3035
//
molecule: TetRrev96/99-4: revTetR(BD) G96P V99S (protein, Modified tetracycline repressor, revTetR(BD) G96P V99S) MSRLDKSKVINSALELLNEVGIEGLTTRKLAQKLGVEQPTLYWHVKNKRALLDALAVEILARHHDYSLPAAGESWQSFLRNNAMSFRRALLRYRDPAKSHLGTRPDEKQYDTVETQLRFMTENGFSLRDGLYAISAVSHFTLGAVLEQQEHTAALTDRPAAPDENLPPLLREALQIMDSDDGEQAFLHGLESLIRGFEVQLTALLQIV
endpoint result: 32.997
//
molecule: TetRrevAF1/8: revTetR(BD) G24G Y93N L101F G102D (protein, Modified tetracycline repressor, revTetR(BD) G24G Y93N L101F G102D) MSRLDKSKVINSALELLNEVGIEGLTTRKLAQKLGVEQPTLYWHVKNKRALLDALAVEILARHHDYSLPAAGESWQSFLRNNAMSFRRALLRNRDGAKVHFDTRPDEKQYDTVETQLRFMTENGFSLRDGLYAISAVSHFTLGAVLEQQEHTAALTDRPAAPDENLPPLLREALQIMDSDDGEQAFLHGLESLIRGFEVQLTALLQIV
endpoint result: 1.1643
//
molecule: TetRrevAF6/5: revTetR(BD) V20V I22V E23D D95N H100P (protein, Modified tetracycline repressor, revTetR(BD) V20V I22V E23D D95N H100P) MSRLDKSKVINSALELLNEVGVDGLTTRKLAQKLGVEQPTLYWHVKNKRALLDALAVEILARHHDYSLPAAGESWQSFLRNNAMSFRRALLRYRNGAKVPLGTRPDEKQYDTVETQLRFMTENGFSLRDGLYAISAVSHFTLGAVLEQQEHTAALTDRPAAPDENLPPLLREALQIMDSDDGEQAFLHGLESLIRGFEVQLTALLQIV
endpoint result: 2.8572
